tested-target: P2Y purinoceptor 12 (Homo sapiens, UniProt Q9H244)
Sequence (Q9H244 whole entry): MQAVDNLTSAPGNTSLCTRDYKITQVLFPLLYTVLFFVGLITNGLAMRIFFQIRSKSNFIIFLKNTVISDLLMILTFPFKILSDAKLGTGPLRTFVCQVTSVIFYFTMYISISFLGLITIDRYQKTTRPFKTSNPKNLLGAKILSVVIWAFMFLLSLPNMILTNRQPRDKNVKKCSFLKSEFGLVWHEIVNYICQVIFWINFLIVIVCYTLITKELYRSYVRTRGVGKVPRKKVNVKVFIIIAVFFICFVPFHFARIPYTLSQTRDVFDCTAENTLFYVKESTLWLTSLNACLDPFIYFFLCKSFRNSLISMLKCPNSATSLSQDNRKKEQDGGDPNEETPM
test-method-notes: Displacement of [3H]-2-Mes-ADP from human P2Y12 receptor in platelets by scintillation counter

| substance-smiles | IC50 |
| --- | --- |
| CNc1cc2[nH]c(=O)n(-c3ccc(NC(=O)NS(=O)(=O)c4ccc(Cl)s4)cc3)c(=O)c2cc1F | < 10 nM |

###

test-method-notes: Oral bioavailability in rat
Assay type: ADME, organism-based
protocol-conditions: in vivo
outcome-measure: bioavailability (%)

| substance-smiles | display-unit | quantitative-result |
| --- | --- | --- |
| CCOC(=O)c1cc(C#N)c(N2CCN(C(=O)NS(=O)(=O)c3ccc(Cl)s3)CC2)nc1C | % | 15 |

###

Below: a set of entries, each annotated with reported IC50.
tested-target: P2Y purinoceptor 12 (Homo sapiens)
test-method-notes: Antagonist activity at P2Y12 receptor (unknown origin) by GTPgammaS binding assay
Format: functional

| substance-smiles | IC50 |
| --- | --- |
| CCc1cnc(-c2cc(C#N)c(N3CC(C(=O)NS(=O)(=O)c4ccc(Cl)s4)C3)nc2C)o1 | 22 nM |
| CCOC(=O)c1cc(C#N)c(N2CCN(C(=O)NS(=O)(=O)c3ccc(Cl)s3)CC2)nc1C | 70 nM |

###

Reported half-life values follow for various molecules
test-method-notes: Terminal half life in beagle dog at 10 mg/kg, po administered via oral gavage by LC/MS analysis
Assay type: ADME, organism-based, Canis lupus familiaris
protocol-conditions: in vivo, read-out: beta t1/2 (converted)

| substance-smiles | half-life [h] |
| --- | --- |
| CCOC(=O)N1CCN(C(=O)[C@H](CCC(=O)O)NC(=O)c2cc(OC(C)(C)C(=O)O)c3ccc(C)cc3n2)CC1 | 7 |
| CCOC(=O)N1CCN(C(=O)[C@H](CCC(=O)O)NC(=O)c2cc(OC(C)(C)C(=O)OCC)c3ccc(C)cc3n2)CC1 | 0.2 |
